# Test system: Toxoplasma gondii RH tachyzoites
# testDescription: % growth inhibition vs DMSO (48 h luciferase); higher = more inhibition
# setupConditions: 10 µM
measurementKind: % growth inhibition (%)
Numeric only. Scale: %

Use the examples below as a reference point.
[
  {
    "compound": "N=c1n(CCN2CCCCC2)c2ccccc2n1CC(O)c1cccc(Br)c1 (stereo unspecified)",
    "% growth inhibition / %": 85.2
  },
  {
    "compound": "Cc1nc2ccccc2c(O)c1CC=C(Cl)Cl",
    "% growth inhibition / %": 79.5
  },
  {
    "compound": "O=C(Nc1ccc(C23CC4CC(CC(c5ccccc5)(C4)C2)C3)cc1)c1cccs1",
    "% growth inhibition / %": 76.8
  },
  {
    "compound": "N#Cc1nc(Cc2cccc3ccccc23)oc1N1CCN(C(c2ccccc2)c2ccccc2)CC1",
    "% growth inhibition / %": 44.8
  },
  {
    "compound": "Cc1ccnc(NC(c2cccc(OCc3ccccc3)c2)c2ccc3cccnc3c2O)c1 (stereo unspecified)",
    "% growth inhibition / %": 98.5
  }
]

Now, please, on to the next compound.
Please look up its % growth inhibition: OC1=C2C(=Nc3ccccc3SC2c2ccc(Br)cc2)c2ccccc21 (stereo unspecified)
99.2

====

# Test system: Toxoplasma gondii RH tachyzoites
# testDescription: % growth inhibition vs DMSO (48 h luciferase); higher = more inhibition
# setupConditions: 10 µM
Decision: % growth inhibition >= 30% yields Fulfilled, all other cases yield Not fulfilled.

[
  {
    "molecule": "CCCCCCOC(=O)C1=C(C)NC(=O)NC1c1ccccc1F (stereo not given)",
    "testedTarget": "Toxoplasma gondii RH tachyzoites",
    "labelClass": "Not fulfilled"
  },
  {
    "molecule": "COc1ccc(NC(=O)C2c3ccccc3C(=O)N(CC(C)C)C2c2cccs2)cc1Cl (stereo not given)",
    "testedTarget": "Toxoplasma gondii RH tachyzoites",
    "labelClass": "Not fulfilled"
  },
  {
    "molecule": "CN(C)CCCNc1c2ccccc2nc2ccccc12",
    "testedTarget": "Toxoplasma gondii RH tachyzoites",
    "labelClass": "Fulfilled"
  }
]

State whether the measured % growth inhibition reaches 30%, counting equality as reaching it, for CCCCCCc1cc2cc(-c3csc(C=Cc4ccccc4)n3)c(=O)oc2cc1O
Not fulfilled

State whether the measured % growth inhibition reaches 30%, counting equality as reaching it, for O=C(NCCCN1CCC(N2CCCCC2)CC1)C1=Cc2cc(Br)ccc2OC1
Fulfilled

State whether the measured % growth inhibition reaches 30%, counting equality as reaching it, for CCOc1ccc(CCNC(=O)c2cccs2)cc1OCC
Fulfilled

State whether the measured % growth inhibition reaches 30%, counting equality as reaching it, for CCCCOC(=O)c1ccc(Nc2cc(C)nc3ccc(OC)cc23)cc1
Fulfilled

====

Catalogue of EC50 growth inhibition values
# testedTarget: Toxoplasma gondii RH tachyzoites
# testDescription: EC50 growth inhibition (48 h luciferase)
Numeric only. Scale: nM

Use the examples below as a reference point.
[
  {
    "structureAsSmiles": "CN(C)c1ccc(C=Cc2nc(=O)c3ccccc3o2)cc1",
    "EC50 growth inhibition [nM]": 264
  },
  {
    "structureAsSmiles": "COc1cc(C(=O)ON=C(N)Cc2cccc3ccccc23)cc(OC)c1OC",
    "EC50 growth inhibition [nM]": 836
  },
  {
    "structureAsSmiles": "O=c1nc(C=Cc2ccc(Cl)cc2)oc2ccccc12",
    "EC50 growth inhibition [nM]": 32.4
  }
]

Now, please, on to the next compound.
Please look up its EC50 growth inhibition: CCOc1ccc2nc(C)cc(Nc3ccc(Br)cc3)c2c1
4410

All values here come from the supplement of paper PMC5770543.
